tgt: TF-VIIa (recombinant soluble tissue factor and recombinant human factor VIIa) (Homo sapiens)
Sequence (P08709 213-466 limits assumed): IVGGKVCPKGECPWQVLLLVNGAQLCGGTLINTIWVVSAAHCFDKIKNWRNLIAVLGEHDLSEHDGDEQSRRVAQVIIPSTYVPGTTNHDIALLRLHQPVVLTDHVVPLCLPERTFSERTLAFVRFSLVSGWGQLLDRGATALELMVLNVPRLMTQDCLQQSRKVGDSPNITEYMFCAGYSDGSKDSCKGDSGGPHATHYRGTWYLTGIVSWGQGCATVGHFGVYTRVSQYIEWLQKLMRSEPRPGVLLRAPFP
Sequence (P08709 61-212 partner limits assumed): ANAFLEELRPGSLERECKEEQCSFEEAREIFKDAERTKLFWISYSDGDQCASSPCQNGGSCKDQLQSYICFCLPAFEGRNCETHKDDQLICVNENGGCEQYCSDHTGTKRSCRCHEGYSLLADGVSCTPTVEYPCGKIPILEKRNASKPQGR
Sequence (P13726 33-251 partner limits assumed): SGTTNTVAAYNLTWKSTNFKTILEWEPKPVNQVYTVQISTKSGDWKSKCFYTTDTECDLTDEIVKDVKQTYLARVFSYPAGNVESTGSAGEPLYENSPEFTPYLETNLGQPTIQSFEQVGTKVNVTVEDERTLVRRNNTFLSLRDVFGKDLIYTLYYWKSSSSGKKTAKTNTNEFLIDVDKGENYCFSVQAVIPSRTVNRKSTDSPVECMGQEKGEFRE
assay details: TF-VIIa Assay
condition summary: chromogenic substrate, 60 min at room temperature, OD 405 nm; read-out: IC50 or % Inhibition TF-VIIa (30 µM): IC50
pIC50: −log10 of the molar value.
quantity: pIC50

I = CC(C)Nc1cn(C)c(-c2cccc(N)c2)c(CC(=O)NCc2ccc(C(=N)N)cc2)c1=O [Example 1]
II = CCCn1cc(NC(C)C)c(=O)c(CC(=O)NCc2ccc(C(=N)N)cc2)c1-c1cccc(N)c1 [Example 2]
For this pair, I and II , which shows a numerically higher pIC50? Output the label that corresponds to your choice.
I
